- Assay Comment: Counterscreen for APE1 Inhibitors: Fluorescent Dye Displacement Validation Assay (AID 1707); further: potency means the concentration at half of the fitted maximal effect
- Conditions Used: fluorescent dye displacement from DNA; series mostly up to 57.1 µM
Results filed as inconclusive are left out. Active and inactive are the calls of the source. The call rests on the fitted dose curve; in most records, active means well fitted inhibition curve with a large enough effect; inconclusive means small, poorly fitted or top-dose-only effect; inactive means no such curve, though single readings can be large or run the other way.
Observable: Potency

> print(dat)
                                   molecule  observable        meas.value
1  CCCC(C)(COC(N)=O)COC(=O)NC(C)C (stereo not drawn)     Potency          inactive
2  O=c1c(O)c(-c2ccc(O)c(O)c2)oc2cc(O)cc(O)c12     Potency  2510 nM (active)
3  CC(CCc1ccccc1)NC(C)C(O)c1ccc(O)cc1 (stereo not drawn)     Potency          inactive

###

- Assay Comment: qHTS assay for measurement of the activity of small molecule inhibitors on Zika virus induced Caspase-3 activity in human iPSC derived neural progenitor cells (hNPCs) (AID 1224857); further: % of control where 0% means no effect; nearly all actives have a fitted effect of over 65% in size
- Conditions Used: hNPCs ZIKV-induced caspase-3/7, Caspase-Glo luminescence, 6 h; series mostly up to 45.7 µM
Records with an inconclusive call do not appear. The source made the active and inactive calls. The call rests on the fitted dose curve; in most records, active means well fitted inhibition curve with a large enough effect; inconclusive means small, poorly fitted or top-dose-only effect; inactive means no such curve, though single readings can be large or run the other way.
Observable: outcome

> print(dat)
                                   molecule  meas.value
1  CC1=C2C[C@@H]3[C@@H](CC=C4C[C@@H](O)CC[C@@]43C)[C@@H]2CC[C@]12O[C@H]1C[C@H](C)CN[C@H]1[C@H]2C    inactive
2  COC[C@H]1OC(=O)c2coc3c2[C@@]1(C)C1=C(C3=O)C2CCC(=O)[C@@]2(C)C[C@H]1OC(C)=O (stereo partly drawn)    inactive
3  CCN(CC)CCN1C(=O)CN=C(c2ccccc2F)c2cc(Cl)ccc21    inactive

###

- Conditions Used: Ebola virus entry cell assay, ratio channel
Calls of active or inactive are those of the source. The call rests on the fitted dose curve.
Response enum: active, inactive

> print(dat)
                                   compound  qualitative.label
1            CCCSc1ccc2nc(NC(=O)OC)[nH]c2c1             active
2  CC(C)C(=O)Nc1ccc([N+](=O)[O-])c(C(F)(F)F)c1           inactive
3  Nc1nc(F)nc2c1ncn2[C@@H]1O[C@H](CO)[C@@H](O)[C@@H]1O           inactive

We next turn to a different compound, shown below.
Query: What classification did CC1OC(C)OC(C)O1 (stereo not drawn) end up with in this test?
Reply: inactive

###

- Tested on: DIV14
- Assay Comment: qHTS profiling for inhibitors of Plasmodium falciparum proliferation (AID 504749); further: nearly all actives have a fitted effect of over 60% in size
- Conditions Used: P. falciparum in erythrocytes, SYBR Green DNA, 72 h; series mostly up to 28.7 µM
Records with an inconclusive call do not appear. Active and inactive are the calls of the source. Calls follow the shape of the dose curve; as a rule, active = well fitted inhibition curve with a large enough effect; inconclusive = small, poorly fitted or top-dose-only effect; inactive = flat fitted curve, though single readings scatter.
Response enum: active, inactive

Would you please look over these solved cases?
> print(dat)
                                   compound  system.under.test  qualitative.label
1  CC(C)=CC1C(C(=O)OCc2cccc(Oc3ccccc3)c2)C1(C)C (configuration not stated)              DIV14           inactive
2                        Oc1ccccc1-c1ccccc1              DIV14           inactive
3     N[C@@H](Cc1ccc(N(CCCl)CCCl)cc1)C(=O)O              DIV14             active
4  CC[N+]1(C)CCCC(OC(=O)C(O)(c2ccccc2)c2ccccc2)C1 (configuration not stated)              DIV14           inactive

Query: What classification did N#CC(C#N)=Cc1ccc(O)c(O)c1 end up with in this test?
Reply: inactive

Query: What classification did CN1C[C@H](CNC(=O)OCc2ccccc2)C[C@@H]2c3cccc4c3c(cn4C)C[C@H]21 end up with in this test?
Reply: active

Query: What classification did Nc1ccncc1 end up with in this test?
Reply: inactive

Query: What classification did CCCN1CCC[C@@H]2Cc3[nH]ncc3C[C@H]21 end up with in this test?
Reply: inactive

Query: What classification did CCC(C(N)=O)N1CCCC1=O (configuration not stated) end up with in this test?
Reply: inactive

###

- Assay Comment: Quantitative High-Throughput drug screen in 47 multiple myeloma cell lines against the NCATS MIPE library collection: MM1R_ATCC cell viability assay (AID 1918981); further: nearly all actives have a fitted effect of over 35% in size
- Conditions Used: MM1R multiple myeloma cells, CellTiter-Glo viability, 48 h; series mostly up to 45.8 µM
Records with an inconclusive call do not appear. Activity calls are given as the source filed them. Calls follow the shape of the dose curve; as a rule, active = well fitted cell-killing curve with a large enough effect; inconclusive = small, poorly fitted or top-dose-only effect, or effect the other way; inactive = no such curve, though single readings can be large or run the other way.
Response enum: true (1) for active, false (0) for inactive

Compound	Qualitative Label
CCCC(C)(COC(N)=O)COC(=O)NC(C)C (configuration not stated)	false (0)
N[C@@H](Cc1ccc(N(CCCl)CCCl)cc1)C(=O)O	true (1)

Query: What classification did CC(O)(CS(=O)(=O)c1ccc(F)cc1)C(=O)Nc1ccc(C#N)c(C(F)(F)F)c1 (configuration not stated) end up with in this test?
Reply: true (1)

Query: What classification did Fc1ccc(C(OCCN2CCN(CCCc3ccccc3)CC2)c2ccc(F)cc2)cc1 end up with in this test?
Reply: true (1)

Query: What classification did COC[C@H]1OC(=O)c2coc3c2[C@@]1(C)C1=C(C3=O)C2CCC(=O)[C@@]2(C)C[C@H]1OC(C)=O (some centres not stated) end up with in this test?
Reply: true (1)

Query: What classification did C[C@@H]1O[C@@H](O[C@H]2C[C@@H](O)[C@]3(CO)[C@H]4[C@H](O)C[C@]5(C)[C@@H](C6=CC(=O)OC6)CC[C@]5(O)[C@@H]4CC[C@]3(O)C2)[C@H](O)[C@H](O)[C@H]1O end up with in this test?
Reply: true (1)

Query: What classification did Cc1sc2c(c1C)C(c1ccc(Cl)cc1)=N[C@@H](CC(=O)OC(C)(C)C)c1nnc(C)n1-2 end up with in this test?
Reply: true (1)

Query: What classification did C[C@@H]1[C@@H](CC(C[C@H]2O[C@@H]3O[C@]4(C)CC[C@@H]5[C@H](C)CC[C@@H]([C@H]2C)[C@@]35OO4)C[S+](=O)([O-])c2ccc(COC(=O)N(C)C)cc2)O[C@@H]2O[C@]3(C)CC[C@H]4[C@H](C)CC[C@@H]1[C@@]24OO3 (some centres not stated) end up with in this test?
Reply: true (1)

Query: What classification did Cn1cc(C2=C(c3cn(C4CCN(Cc5ccccn5)CC4)c4ccccc34)C(=O)NC2=O)c2ccccc21 end up with in this test?
Reply: true (1)

Query: What classification did O=c1[nH]c2ccccc2n1CCCN1CCC(n2c(=O)[nH]c3cc(Cl)ccc32)CC1 end up with in this test?
Reply: false (0)

Query: What classification did CC1=C2C[C@@H]3[C@@H](CC=C4C[C@@H](O)CC[C@@]43C)[C@@H]2CC[C@]12O[C@H]1C[C@H](C)CN[C@H]1[C@H]2C end up with in this test?
Reply: true (1)

Query: What classification did COc1ccc(C(=O)c2c(C)n(CCN3CCOCC3)c3ccccc23)cc1 end up with in this test?
Reply: false (0)

###

- Assay Comment: qHTS Screen of the MIPE 4.0 Collection Against Ewings Sarcoma (TC71) (AID 1259253); further: nearly all actives have a fitted effect of over 40% in size
- Conditions Used: TC71 Ewing sarcoma viability, CellTiter-Glo, 48 h; series mostly up to 45.8 µM
Results filed as inconclusive are left out. The source made the active and inactive calls. Calls follow the shape of the dose curve; as a rule, active = well fitted inhibition curve with a large enough effect; inconclusive = small, poorly fitted or top-dose-only effect; inactive = no such curve, though single readings can be large or run the other way.
Response enum: active, inactive

Would you please look over these solved cases?
> print(dat)
                                   compound  qualitative.label
1  C=C(C)[C@H]1Cc2c(ccc3c2O[C@@H]2COc4cc(OC)c(OC)cc4[C@@H]2C3=O)O1             active
2  CCCC(C)(COC(N)=O)COC(=O)NC(C)C (stereo unspecified)           inactive
3                 C#CCN(C)[C@H](C)Cc1ccccc1           inactive
4             CN(C)CCN(C)CCc1ccc(Cl)c(Cl)c1           inactive

Query: What classification did Cn1cc(C2=C(c3cn(C4CCN(Cc5ccccn5)CC4)c4ccccc34)C(=O)NC2=O)c2ccccc21 end up with in this test?
Reply: active

Query: What classification did CC(O)(CS(=O)(=O)c1ccc(F)cc1)C(=O)Nc1ccc(C#N)c(C(F)(F)F)c1 (stereo unspecified) end up with in this test?
Reply: active

###

- Assay Comment: qHTS Screen of the MIPE 4.0 Collection Against Ewings Sarcoma (TC71) (AID 1259253); further: nearly all actives have a fitted effect of over 40% in size
- Conditions Used: TC71 Ewing sarcoma viability, CellTiter-Glo, 48 h; series mostly up to 45.8 µM
Inconclusive results are not listed. Calls of active or inactive are those of the source. Calls follow the shape of the dose curve; as a rule, active = well fitted inhibition curve with a large enough effect; inconclusive = small, poorly fitted or top-dose-only effect; inactive = no such curve, though single readings can be large or run the other way.
Response enum: active, inactive

Would you please look over these solved cases?
Test Smiles	Qualitative Label
O=C1CC[C@@]2(O)[C@H]3Cc4ccc(O)c5c4[C@@]2(CCN3CC2CC2)[C@H]1O5	inactive
CN(C)[C@@H]1C(=O)C(C(N)=O)=C(O)[C@@]2(O)C(=O)C3=C(O)c4c(O)cccc4[C@@](C)(O)[C@H]3C[C@@H]12	active

We next turn to a different compound, shown below.
Query: What classification did C[C@@H]1O[C@@H](O[C@H]2C[C@@H](O)[C@]3(CO)[C@H]4[C@H](O)C[C@]5(C)[C@@H](C6=CC(=O)OC6)CC[C@]5(O)[C@@H]4CC[C@]3(O)C2)[C@H](O)[C@H](O)[C@H]1O end up with in this test?
Reply: active

Cited source: PubChem BioAssay (NCATS)
